tested on: SN12C renal; assay: NCI-60 one-dose screen, 48 h (100 = growth as untreated, 0 = no growth, -100 = all killed); settings: 10 µM unless noted
The panel holds about 83,000 compounds, 20% with a hit somewhere; the sample as a whole holds those more often.
Just a reminder that ties go to NOT MET: only growth strictly below 60% counts as MET.

{"columns": ["COMPOUND", "LABEL"],
 "data": [
  ["CC(C)=CCc1c2c(c(O)c3c1O[C@]14C(=C[C@@H]5C[C@H]1C(C)(C)O[C@@]4(C/C=C(/C)C(=O)O)C5=O)C3=O)CC(O)C(C)(C)O2 (stereo partly drawn)", "MET"],
  ["Cc1ccc(NC(=O)c2cccc(CN3CCN(C)CC3)c2)cc1Oc1ccc(-c2[nH]nc3ncnc(N)c23)cc1", "NOT MET"],
  ["N#Cc1ccc(S(=O)(=O)Nc2ccc(-c3cnc(N)[nH]3)cc2)cc1", "NOT MET"],
  ["CS(=O)c1nccc(-c2c(-c3ccc(F)c(OCCc4ccccc4)c3)nc3sccn23)n1 (stereo not drawn)", "NOT MET"],
  ["CCC(CC)N1C(=O)/C(=c2\\sc3n(c2=O)C2C(NN=3)N(CC)C(=O)N2CC)c2ccccc21 (stereo not drawn)", "MET"],
  ["C#C[C@]1(O)CC[C@H]2[C@@H]3CC=C4c5sc(Nc6cccc(Cl)n6)nc5CC[C@]4(C)[C@H]3CC[C@@]21C", "MET"],
  ["Fc1ccc(-c2cc3nc(C(Cl)Cl)nc(-c4cccs4)n3n2)cc1", "NOT MET"]
]}
